tested on: Semliki Forest virus; assay: In vivo antiviral protection against lethal Forest virus (SFV) infection at dosage of 100 mg/kg tested in 12 mice; type: functional
Entries whose Activity is below 5 take Satisfied; entries at or above 5 take Not satisfied.

Example entries and their recorded answers appear below.
-- ask Please let me know if `CCCCCCn1c(Cl)nc2c(O)nc(N)nc21` shows Activity below 5.
-- reply Not satisfied

-- ask Please let me know if `C=CCn1c(=S)n(CCCCCC)c2nc(N)nc(O)c21` shows Activity below 5.
-- reply Not satisfied

-- ask Please let me know if `Nc1nc(O)c2nc(Br)n(CCCCCCO)c2n1` shows Activity below 5.
-- reply Satisfied

-- ask Please let me know if `CCCCCCn1c(C)nc2c(O)nc(N)nc21` shows Activity below 5.
-- reply Satisfied

-- ask Please let me know if C[C@]1(CO)OC(n2c(=O)sc3c(O)nc(N)nc32)[C@H](O)[C@@H]1O (stereo partly specified) shows Activity below 5.
-- reply Not satisfied

-- ask Please let me know if `CCCCCCn1c(O)nc2c(O)nc(N)nc21` shows Activity below 5.
-- reply Satisfied

-- ask Please let me know if `Nc1nc(O)c2ncn(CCCCCCO)c2n1` shows Activity below 5.
-- reply Satisfied

-- ask Please let me know if `CCCCCCn1c(CC)nc2c(O)nc(N)nc21` shows Activity below 5.
-- reply Satisfied

---
-- ask Please let me know if `CCCCCCn1c(S)nc2c(S)nc(N)nc21` shows Activity below 5.
-- reply Satisfied

-- ask Please let me know if `C=CCSc1nc2c(O)nc(N)nc2n1CCCCCC` shows Activity below 5.
-- reply Not satisfied

FYI, the data here is from ChEMBL document CHEMBL1126885.
